Numbers sourced from paper PMC9482650.

- EXPERIMENTAL_SYSTEM: T1, DFNB31_3, Q9P202
- T1 sequence (Q9P202 811-907, limits assumed, looked up): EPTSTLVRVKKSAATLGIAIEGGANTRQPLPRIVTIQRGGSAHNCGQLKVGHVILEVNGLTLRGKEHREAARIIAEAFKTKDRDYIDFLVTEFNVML
- PROTOCOL_DESCRIPTION: holdup assay
- Design: key: below the threshold = too weak to quantify, mostly under pKd 3.1 to 4
- ASSAY_CONDITIONS: plain residues with an end cap or a label only (N-terminal biotin on a linker: ttds)
MEASURED_PROPERTY: pKd

Study these solved cases before continuing.
LCALPKVTTV [AGMAT, Q9BSE5]	3.69
SEKHFRETEV [HTLV1-TAX1, P03409]	below the threshold
RTRQRNETQV [HPV51-E6, P26554]	below the threshold
LDSQIQETSI [MAP4, P27816]	below the threshold
DPRNTQTSQI [ABRAXAS2, Q15018]	3.67

Would you kindly look at the next entry?
// query Sample PKRPFVESNV [TANC2, Q9HCD6] — what was its pKd?
// result below the threshold
